B1: TBX5 (parent)
chain: FHEVGTEMIITKAGRRMFPSYKVK

Variants of: B1
Experiment: protein stability index of a GFP-peptide fusion (GPS, HEK-293T) (PSI 1-6); higher = more stable;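 note: lentivirally expressed fusions sorted by FACS into six bins by GFP to DsRed ratio, PSI derived from sequencing read proportions per bin multiplied by bin number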
Conditions: c terminus: a fixed tail appended
The variants listed here are annotated with their protein stability index.
Write the value as a bare number.

# annotated cases, reported protein stability index shown
>  <sequence.variant>
E3P

>  <protein stability index>
2.42

$$$$
>  <sequence.variant>
K12L

>  <protein stability index>
2.81

$$$$
>  <sequence.variant>
P19N

>  <protein stability index>
1.61

$$$$

Query K12D yields protein stability index of 2.57

According to the records, this variant M8Y displays protein stability index of 1.87
